The measurements presented in this section are drawn from ChEMBL document CHEMBL1148261.

experimental_details: Oral bioavailability of compound in rats
Assay type: ADME, organism-based
conditions_used: rat, in vivo
observable: bioavailability (%)

INSERT INTO measurements (query_smiles, recorded_measurement) VALUES
  ('Cc1ccc(S(=O)(=O)Nc2ccccc2C(=O)N(Cc2ccccc2)Cc2cccnc2)cc1', 43);

---

experimental_details: pKa value was determined
Format: physicochemical
Assign satisfied to entries whose pKa meets or exceeds 7; assign not satisfied to the rest.

INSERT INTO assay_data (query_smiles, class_assignment) VALUES
  ('CC[C@H](NC(=O)c1ccccc1NS(=O)(=O)c1ccc(C(F)(F)F)cc1)c1ccccc1', 'not satisfied'),
  ('CC[C@H](NC(=O)c1cc(OC)ccc1NS(=O)(=O)c1ccc(C)cc1)c1ccccc1', 'satisfied'),
  ('CC[C@H](NC(=O)c1cc(F)ccc1NS(=O)(=O)c1ccc(Cl)cc1)c1ccccc1', 'not satisfied');
